targetOrSystem: MATE1 (Homo sapiens)
Sequence (Q96FL8 whole entry): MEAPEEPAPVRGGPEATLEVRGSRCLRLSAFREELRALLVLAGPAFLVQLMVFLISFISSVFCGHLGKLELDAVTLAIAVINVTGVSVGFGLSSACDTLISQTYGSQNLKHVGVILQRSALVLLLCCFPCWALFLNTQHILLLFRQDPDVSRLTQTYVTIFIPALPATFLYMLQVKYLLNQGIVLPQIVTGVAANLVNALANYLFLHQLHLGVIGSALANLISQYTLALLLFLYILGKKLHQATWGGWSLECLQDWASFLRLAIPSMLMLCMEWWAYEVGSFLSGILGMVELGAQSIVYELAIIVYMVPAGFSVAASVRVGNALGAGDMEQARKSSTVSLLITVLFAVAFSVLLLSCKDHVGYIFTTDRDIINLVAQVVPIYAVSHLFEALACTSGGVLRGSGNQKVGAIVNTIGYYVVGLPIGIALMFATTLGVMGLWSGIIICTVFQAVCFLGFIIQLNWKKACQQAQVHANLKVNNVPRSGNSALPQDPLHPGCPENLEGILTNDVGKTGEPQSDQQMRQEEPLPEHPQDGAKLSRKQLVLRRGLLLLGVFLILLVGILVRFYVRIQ
measurementProtocol: Transporter inhibition, probe substrate accumulation
Type: in vitro ADME
settings: MDCKII cells stably transfected with MATE1
measuredProperty: inhibition at 10 μg·ml^−1 (%)
Could you give me the number in %? Just the number is fine.

Please give measured inhibition at 10 μg·ml^−1 of the following entry: "CN(C(=O)n1cnc(-c2ccc[n+]([O-])c2)c1)C1CCCCC1"
24

----------
targetOrSystem: rat brain fatty acid amide hydrolase (FAAH) (Rattus norvegicus, UniProt P97612)
Sequence (P97612 whole entry): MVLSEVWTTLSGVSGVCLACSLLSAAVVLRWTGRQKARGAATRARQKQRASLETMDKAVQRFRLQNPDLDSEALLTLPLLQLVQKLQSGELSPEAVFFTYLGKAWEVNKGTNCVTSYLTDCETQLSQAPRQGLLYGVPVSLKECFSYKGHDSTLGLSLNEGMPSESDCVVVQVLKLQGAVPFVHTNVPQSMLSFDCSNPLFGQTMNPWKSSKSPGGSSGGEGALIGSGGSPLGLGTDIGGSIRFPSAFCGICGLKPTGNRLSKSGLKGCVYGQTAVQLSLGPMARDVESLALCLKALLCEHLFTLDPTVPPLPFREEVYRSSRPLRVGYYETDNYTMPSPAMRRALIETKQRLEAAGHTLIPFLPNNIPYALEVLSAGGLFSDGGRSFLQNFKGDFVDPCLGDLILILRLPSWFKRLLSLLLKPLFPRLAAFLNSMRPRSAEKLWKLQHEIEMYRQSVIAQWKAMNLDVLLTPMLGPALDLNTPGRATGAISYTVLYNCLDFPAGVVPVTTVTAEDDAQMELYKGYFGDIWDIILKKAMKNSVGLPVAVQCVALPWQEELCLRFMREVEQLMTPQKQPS
Format: biochemical
settings: read-out: IC50 [95% CI]; pre‐incubation 45 min
measuredProperty: pIC50
By convention, pIC50 is the negative base-10 log of a molar concentration.

Supply pIC50 value. Item: "O=C(Nc1cnccc1Cl)N1CCN(Cc2ccc3c(c2)OC(F)(F)O3)CC1"
6.79

Return value of pIC50 for input "O=C(Nc1cccnn1)N1CCC(=Cc2cccc(Oc3ccc(C(F)(F)F)cn3)c2)CC1" , no commentary.
8.57
